# system.tested: UniProt O15379

>  <mol.smiles>
COC(=O)CCCCN1C(=O)[C@H](C)N=C(c2ccccc2)c2ccccc21

>  <IC50>
> 30 µM

$$$$
>  <mol.smiles>
CC(C)(C)OC(=O)CC[C@@H]1N=C(c2ccccc2)c2ccccc2NC1=O

>  <IC50>
> 30 µM

$$$$
>  <mol.smiles>
O=C(C[C@@H]1N=C(c2ccccc2)c2ccccc2NC1=O)NC(c1ccccc1)(c1ccccc1)c1ccccc1

>  <IC50>
> 30 µM

$$$$

====

Reported values: pIC50 for Histone deacetylase 1 (Homo sapiens), one per item.
pIC50: −log10 of the molar value.
assay.endpoint: pIC50

>  <mol.smiles>
O=C(O)C[C@H]1N=C(c2ccccc2)c2ccccc2NC1=O

>  <system.tested>
Histone deacetylase 1 (Homo sapiens)
Sequence (Q13547 whole entry): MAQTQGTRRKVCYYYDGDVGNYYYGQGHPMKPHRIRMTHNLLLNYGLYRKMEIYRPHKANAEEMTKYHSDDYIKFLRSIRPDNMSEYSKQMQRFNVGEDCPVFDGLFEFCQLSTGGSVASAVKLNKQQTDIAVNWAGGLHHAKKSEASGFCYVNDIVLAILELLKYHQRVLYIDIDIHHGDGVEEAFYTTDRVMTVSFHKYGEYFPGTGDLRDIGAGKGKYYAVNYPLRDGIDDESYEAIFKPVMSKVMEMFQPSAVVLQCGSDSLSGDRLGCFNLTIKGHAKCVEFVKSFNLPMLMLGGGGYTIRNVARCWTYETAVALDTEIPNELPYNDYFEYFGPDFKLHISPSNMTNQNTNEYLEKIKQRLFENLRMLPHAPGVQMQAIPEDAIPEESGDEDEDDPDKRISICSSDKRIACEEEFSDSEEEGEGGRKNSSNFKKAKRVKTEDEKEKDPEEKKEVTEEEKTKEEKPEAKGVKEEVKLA

>  <measured.value>
< 4.52

$$$$
>  <mol.smiles>
CC(C)(C)OC(=O)NCCCC[C@@H]1N=C(c2ccccc2)c2ccccc2N(CCCCC(=O)NO)C1=O

>  <system.tested>
Histone deacetylase 1 (Homo sapiens)

>  <measured.value>
5.33

$$$$
>  <mol.smiles>
CC(C)(C)OC(=O)n1cc(C[C@@H]2N=C(c3ccccc3)c3ccccc3NC2=O)c2ccccc21

>  <system.tested>
Histone deacetylase 1 (Homo sapiens)

>  <measured.value>
< 4.52

$$$$
>  <mol.smiles>
CC(C)C[C@@H]1N=C(c2ccccc2)c2ccccc2N(CCCCC(=O)O)C1=O

>  <system.tested>
Histone deacetylase 1 (Homo sapiens)

>  <measured.value>
< 4.52

$$$$

====

# system.tested: Histone deacetylase 1 (Homo sapiens)
# test.description: Inhibition of human KDAC1 at 30 uM using substrate A after 60 mins by fluorescence assay relative to control

>  <mol.smiles>
CC(C)(C)SC[C@H]1N=C(c2ccccc2)c2ccccc2NC1=O

>  <inhibition / %>
4.1

$$$$
>  <mol.smiles>
CC(C)(C)OC(=O)CC[C@@H]1N=C(c2ccccc2)c2ccccc2NC1=O

>  <inhibition / %>
5.85

$$$$
>  <mol.smiles>
COC(=O)CCCCN1C(=O)CN=C(c2ccccc2)c2ccccc21

>  <inhibition / %>
0.19

$$$$
>  <mol.smiles>
COC(=O)CCCCN1C(=O)[C@H](CCC(=O)NC(c2ccccc2)(c2ccccc2)c2ccccc2)N=C(c2ccccc2)c2ccccc21

>  <inhibition / %>
7.24

$$$$
>  <mol.smiles>
O=C(CCCNC(=O)C[C@@H]1N=C(c2ccccc2)c2ccccc2NC1=O)NO

>  <inhibition / %>
63.5

$$$$
>  <mol.smiles>
COC(=O)CCCCN1C(=O)[C@H](Cc2ccccc2)N=C(c2ccccc2)c2ccccc21

>  <inhibition / %>
1.72

$$$$
>  <mol.smiles>
O=C(O)CCCCN1C(=O)[C@H](CC(=O)O)N=C(c2ccccc2)c2ccccc21

>  <inhibition / %>
0

$$$$
>  <mol.smiles>
O=C(CCCCN1C(=O)[C@H](Cc2cncn2C(c2ccccc2)(c2ccccc2)c2ccccc2)N=C(c2ccccc2)c2ccccc21)NO

>  <inhibition / %>
22.3

$$$$

====

Reported values: pIC50 for Histone deacetylase 3 (Homo sapiens, UniProt O15379), one per item.
pIC50: −log10 of the molar value.

>  <mol.smiles>
CC(C)(C)Oc1ccc(C[C@@H]2N=C(c3ccccc3)c3ccccc3NC2=O)cc1

>  <pIC50>
< 4.52

$$$$
>  <mol.smiles>
COC(=O)CCCCN1C(=O)[C@H](C(C)C)N=C(c2ccccc2)c2ccccc21

>  <pIC50>
< 4.52

$$$$
>  <mol.smiles>
CC(C)(C)OC(=O)NCCCC[C@@H]1N=C(c2ccccc2)c2ccccc2N(CCCCC(=O)O)C1=O

>  <pIC50>
< 4.52

$$$$
>  <mol.smiles>
O=C(O)C[C@@H]1N=C(c2ccccc2)c2ccccc2NC1=O

>  <pIC50>
< 4.52

$$$$
>  <mol.smiles>
C[C@H](OCc1ccccc1)[C@@H]1N=C(c2ccccc2)c2ccccc2N(CCCCC(=O)O)C1=O

>  <pIC50>
< 4.52

$$$$
>  <mol.smiles>
O=C(CCCNC(=O)CC[C@@H]1N=C(c2ccccc2)c2ccccc2NC1=O)NO

>  <pIC50>
5.29

$$$$
>  <mol.smiles>
CC(C)(C)OC(=O)CC[C@@H]1N=C(c2ccccc2)c2ccccc2N(CCCCC(=O)O)C1=O

>  <pIC50>
< 4.52

$$$$
>  <mol.smiles>
CC(C)(C)OC(=O)n1cc(C[C@@H]2N=C(c3ccccc3)c3ccccc3NC2=O)c2ccccc21

>  <pIC50>
< 4.52

$$$$
>  <mol.smiles>
CC(C)C[C@@H]1N=C(c2ccccc2)c2ccccc2NC1=O

>  <pIC50>
< 4.52

$$$$
>  <mol.smiles>
COC(=O)CCCCN1C(=O)[C@H](Cc2ccccc2)N=C(c2ccccc2)c2ccccc21

>  <pIC50>
< 4.52

$$$$
>  <mol.smiles>
O=C(CCCCN1C(=O)[C@H](Cc2ccccc2)N=C(c2ccccc2)c2ccccc21)NO

>  <pIC50>
6.31

$$$$
>  <mol.smiles>
O=C(O)CCCCN1C(=O)[C@H](Cc2cncn2C(c2ccccc2)(c2ccccc2)c2ccccc2)N=C(c2ccccc2)c2ccccc21

>  <pIC50>
< 4.52

$$$$
>  <mol.smiles>
CC[C@H](C)[C@@H]1N=C(c2ccccc2)c2ccccc2NC1=O

>  <pIC50>
< 4.52

$$$$
>  <mol.smiles>
C[C@@H]1N=C(c2ccccc2)c2ccccc2N(CCCCC(=O)NO)C1=O

>  <pIC50>
5.74

$$$$
>  <mol.smiles>
CC(C)(C)OC(=O)C[C@@H]1N=C(c2ccccc2)c2ccccc2N(CCCCC(=O)NO)C1=O

>  <pIC50>
5.38

$$$$
>  <mol.smiles>
CC(C)(C)SC[C@H]1N=C(c2ccccc2)c2ccccc2NC1=O

>  <pIC50>
< 4.52

$$$$
>  <mol.smiles>
Cc1c(C)c(S(=O)(=O)NC(=N)NCCC[C@@H]2N=C(c3ccccc3)c3ccccc3NC2=O)c(C)c2c1OC(C)(C)C2

>  <pIC50>
< 4.52

$$$$
>  <mol.smiles>
COC(=O)CCCCN1C(=O)[C@@H](CSC(C)(C)C)N=C(c2ccccc2)c2ccccc21

>  <pIC50>
< 4.52

$$$$
>  <mol.smiles>
O=C(O)CCCCN1C(=O)[C@H](Cc2ccccc2)N=C(c2ccccc2)c2ccccc21

>  <pIC50>
< 4.52

$$$$

====

inhibition overview
# system.tested: Histone deacetylase 3 (Homo sapiens, UniProt O15379)
# Sequence (O15379 whole entry): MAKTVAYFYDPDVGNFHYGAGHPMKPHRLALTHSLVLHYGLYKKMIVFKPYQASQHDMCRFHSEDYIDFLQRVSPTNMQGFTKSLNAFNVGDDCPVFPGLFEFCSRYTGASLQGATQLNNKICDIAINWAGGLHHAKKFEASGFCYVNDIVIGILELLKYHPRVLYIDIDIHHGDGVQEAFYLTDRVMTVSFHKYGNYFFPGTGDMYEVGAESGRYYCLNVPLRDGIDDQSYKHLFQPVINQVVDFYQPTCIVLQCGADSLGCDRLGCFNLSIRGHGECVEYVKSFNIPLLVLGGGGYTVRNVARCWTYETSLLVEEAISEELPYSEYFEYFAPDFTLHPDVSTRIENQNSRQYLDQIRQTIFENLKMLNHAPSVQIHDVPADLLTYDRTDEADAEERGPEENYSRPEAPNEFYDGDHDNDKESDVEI
# test.description: Inhibition of human KDAC3 at 30 uM using FITC-labeled p53 acetylated peptide as substrate after 60 mins by fluorescence assay relative to control

>  <mol.smiles>
CC(C)(C)SC[C@H]1N=C(c2ccccc2)c2ccccc2N(CCCCC(=O)NO)C1=O

>  <system.tested>
Histone deacetylase 3 (Homo sapiens, UniProt O15379)

>  <reading.unit>
%

>  <inhibition>
98.8

$$$$
>  <mol.smiles>
CC(C)(C)OC(=O)n1c(C[C@@H]2N=C(c3ccccc3)c3ccccc3N(CCCCC(=O)O)C2=O)cc2ccccc21

>  <system.tested>
Histone deacetylase 3 (Homo sapiens, UniProt O15379)

>  <reading.unit>
%

>  <inhibition>
0.79

$$$$
>  <mol.smiles>
COC(=O)CCCCN1C(=O)[C@H](COC(C)(C)C)N=C(c2ccccc2)c2ccccc21

>  <system.tested>
Histone deacetylase 3 (Homo sapiens, UniProt O15379)

>  <reading.unit>
%

>  <inhibition>
0

$$$$
>  <mol.smiles>
O=C(O)CCCCN1C(=O)[C@H](CCC(=O)NC(c2ccccc2)(c2ccccc2)c2ccccc2)N=C(c2ccccc2)c2ccccc21

>  <system.tested>
Histone deacetylase 3 (Homo sapiens, UniProt O15379)

>  <reading.unit>
%

>  <inhibition>
0

$$$$
>  <mol.smiles>
O=C(CCCCN1C(=O)[C@H](CO)N=C(c2ccccc2)c2ccccc21)NO

>  <system.tested>
Histone deacetylase 3 (Homo sapiens, UniProt O15379)

>  <reading.unit>
%

>  <inhibition>
85.9

$$$$
>  <mol.smiles>
CC(C)C[C@@H]1N=C(c2ccccc2)c2ccccc2N(CCCCC(=O)NO)C1=O

>  <system.tested>
Histone deacetylase 3 (Homo sapiens, UniProt O15379)

>  <reading.unit>
%

>  <inhibition>
98.5

$$$$
>  <mol.smiles>
O=C(O)CCCCN1C(=O)[C@H](CC(=O)O)N=C(c2ccccc2)c2ccccc21

>  <system.tested>
Histone deacetylase 3 (Homo sapiens, UniProt O15379)

>  <reading.unit>
%

>  <inhibition>
1.93

$$$$
>  <mol.smiles>
COC(=O)CCCCN1C(=O)[C@H](CCC(=O)OC(C)(C)C)N=C(c2ccccc2)c2ccccc21

>  <system.tested>
Histone deacetylase 3 (Homo sapiens, UniProt O15379)

>  <reading.unit>
%

>  <inhibition>
0

$$$$
>  <mol.smiles>
CC(C)(C)OC(=O)NCCCC[C@@H]1N=C(c2ccccc2)c2ccccc2N(CCCCC(=O)O)C1=O

>  <system.tested>
Histone deacetylase 3 (Homo sapiens, UniProt O15379)

>  <reading.unit>
%

>  <inhibition>
0

$$$$
>  <mol.smiles>
O=C(CC[C@H]1N=C(c2ccccc2)c2ccccc2NC1=O)NO

>  <system.tested>
Histone deacetylase 3 (Homo sapiens, UniProt O15379)

>  <reading.unit>
%

>  <inhibition>
29.4

$$$$
>  <mol.smiles>
O=C(O)C[C@@H]1N=C(c2ccccc2)c2ccccc2N(CCCCC(=O)NO)C1=O

>  <system.tested>
Histone deacetylase 3 (Homo sapiens, UniProt O15379)

>  <reading.unit>
%

>  <inhibition>
75.5

$$$$
>  <mol.smiles>
CC(C)(C)Oc1ccc(C[C@@H]2N=C(c3ccccc3)c3ccccc3NC2=O)cc1

>  <system.tested>
Histone deacetylase 3 (Homo sapiens, UniProt O15379)

>  <reading.unit>
%

>  <inhibition>
0

$$$$
>  <mol.smiles>
O=C(C[C@@H]1N=C(c2ccccc2)c2ccccc2NC1=O)NC(c1ccccc1)(c1ccccc1)c1ccccc1

>  <system.tested>
Histone deacetylase 3 (Homo sapiens, UniProt O15379)

>  <reading.unit>
%

>  <inhibition>
0

$$$$
>  <mol.smiles>
O=C1Nc2ccccc2C(c2ccccc2)=N[C@H]1Cc1ccccc1

>  <system.tested>
Histone deacetylase 3 (Homo sapiens, UniProt O15379)

>  <reading.unit>
%

>  <inhibition>
0

$$$$
>  <mol.smiles>
COC(=O)CCCCN1C(=O)[C@H](C(C)C)N=C(c2ccccc2)c2ccccc21

>  <system.tested>
Histone deacetylase 3 (Homo sapiens, UniProt O15379)

>  <reading.unit>
%

>  <inhibition>
0

$$$$
>  <mol.smiles>
CC(C)(C)OC(=O)NCCCC[C@@H]1N=C(c2ccccc2)c2ccccc2NC1=O

>  <system.tested>
Histone deacetylase 3 (Homo sapiens, UniProt O15379)

>  <reading.unit>
%

>  <inhibition>
0

$$$$
>  <mol.smiles>
COC(=O)CCCCN1C(=O)[C@@H](CSC(C)(C)C)N=C(c2ccccc2)c2ccccc21

>  <system.tested>
Histone deacetylase 3 (Homo sapiens, UniProt O15379)

>  <reading.unit>
%

>  <inhibition>
0

$$$$
>  <mol.smiles>
CC(C)(C)OC(=O)C[C@@H]1N=C(c2ccccc2)c2ccccc2N(CCCCC(=O)O)C1=O

>  <system.tested>
Histone deacetylase 3 (Homo sapiens, UniProt O15379)

>  <reading.unit>
%

>  <inhibition>
2.62

$$$$
>  <mol.smiles>
COC(=O)CCCCN1C(=O)[C@H](Cc2cncn2C(c2ccccc2)(c2ccccc2)c2ccccc2)N=C(c2ccccc2)c2ccccc21

>  <system.tested>
Histone deacetylase 3 (Homo sapiens, UniProt O15379)

>  <reading.unit>
%

>  <inhibition>
0

$$$$
>  <mol.smiles>
NC(=O)C[C@@H]1N=C(c2ccccc2)c2ccccc2N(CCCCC(=O)NO)C1=O

>  <system.tested>
Histone deacetylase 3 (Homo sapiens, UniProt O15379)

>  <reading.unit>
%

>  <inhibition>
90.9

$$$$
>  <mol.smiles>
CC(C)[C@@H]1N=C(c2ccccc2)c2ccccc2N(CCCCC(=O)O)C1=O

>  <system.tested>
Histone deacetylase 3 (Homo sapiens, UniProt O15379)

>  <reading.unit>
%

>  <inhibition>
0

$$$$
>  <mol.smiles>
C[C@H](OCc1ccccc1)[C@@H]1N=C(c2ccccc2)c2ccccc2N(CCCCC(=O)O)C1=O

>  <system.tested>
Histone deacetylase 3 (Homo sapiens, UniProt O15379)

>  <reading.unit>
%

>  <inhibition>
0

$$$$
>  <mol.smiles>
N=C(N)NCCC[C@@H]1N=C(c2ccccc2)c2ccccc2N(CCCCC(=O)NO)C1=O

>  <system.tested>
Histone deacetylase 3 (Homo sapiens, UniProt O15379)

>  <reading.unit>
%

>  <inhibition>
101

$$$$
>  <mol.smiles>
CC(C)(C)Oc1ccc(C[C@@H]2N=C(c3ccccc3)c3ccccc3N(CCCCC(=O)NO)C2=O)cc1

>  <system.tested>
Histone deacetylase 3 (Homo sapiens, UniProt O15379)

>  <reading.unit>
%

>  <inhibition>
98.4

$$$$
>  <mol.smiles>
Cc1c(C)c(S(=O)(=O)NC(=N)NCCC[C@@H]2N=C(c3ccccc3)c3ccccc3N(CCCCC(=O)NO)C2=O)c(C)c2c1OC(C)(C)C2

>  <system.tested>
Histone deacetylase 3 (Homo sapiens, UniProt O15379)

>  <reading.unit>
%

>  <inhibition>
94.6

$$$$
